Tested on: J774.A1
Assay: Antiproliferative activity against mouse J774.A1 cells after 72 hrs by MTT conversion assay
Format: cell-based
Conditions: J774.A1, 72 h
pIC50: −log10 of the molar value.

structure notation | pIC50
C[C@@H]1O[C@@H](O[C@H]2[C@H](O)[C@@H](O)[C@H](OC[C@H]3O[C@@H](OC(=O)[C@]45CCC(C)(C)C[C@H]4C4=CC[C@@H]6[C@@]7(C)CC[C@H](O[C@@H]8O[C@H](C(=O)O)[C@@H](O)[C@H](O)[C@H]8O[C@@H]8O[C@H](CO)[C@@H](O)[C@H](O)[C@H]8O)C(C)(C)[C@@H]7CC[C@@]6(C)[C@]4(C)CC5)[C@H](O)[C@@H](O)[C@@H]3O)O[C@@H]2CO)[C@H](O)[C@H](O)[C@H]1O | 5.16
CC1(C)CC[C@]2(C(=O)O[C@@H]3O[C@H](CO)[C@@H](O)[C@H](O)[C@H]3O)CC[C@]3(C)C(=CC[C@@H]4[C@@]5(C)CC[C@H](O[C@H]6OC[C@H](O)[C@H](O[C@@H]7O[C@H](CO)[C@@H](O)[C@H](O)[C@H]7O)[C@H]6O)C(C)(C)[C@@H]5CC[C@]43C)[C@@H]2C1 | 5.41
C[C@@H]1O[C@@H](O[C@H]2[C@H](O)[C@@H](O)[C@H](OC[C@H]3O[C@@H](OC(=O)[C@]45CCC(C)(C)C[C@H]4C4=CC[C@@H]6[C@@]7(C)CC[C@H](O[C@H]8OC[C@H](O)[C@H](O[C@@H]9O[C@H](CO)[C@@H](O[C@@H]%10O[C@H](CO)[C@@H](O)[C@H](O)[C@H]%10O)[C@H](O)[C@H]9O)[C@H]8O)C(C)(C)[C@@H]7CC[C@@]6(C)[C@]4(C)CC5)[C@H](O)[C@@H](O)[C@@H]3O)O[C@@H]2CO)[C@H](O)[C@H](O)[C@H]1O | 5.52
CC1(C)CC[C@]2(C(=O)O[C@@H]3O[C@H](CO)[C@@H](O)[C@H](O)[C@H]3O)[C@H](O)C[C@]3(C)C(=CC[C@@H]4[C@@]5(C)CC[C@H](O[C@@H]6O[C@H](C(=O)O)[C@@H](O)[C@H](O)[C@H]6O[C@@H]6O[C@H](CO)[C@@H](O)[C@H](O)[C@H]6O)C(C)(C)[C@@H]5CC[C@]43C)[C@@H]2C1 | 6.72

---

Test system: J774.A1
Assay: Antiproliferative activity against mouse J774.A1 cells after 72 hrs by MTT conversion assay
Assay type: cell-based
Settings: J774.A1, 72 h
assay readout: IC50

structure notation | recorded measurement
C[C@@H]1O[C@@H](O[C@H]2[C@H](O)[C@@H](O)[C@H](OC[C@H]3O[C@@H](OC(=O)[C@]45CCC(C)(C)C[C@H]4C4=CC[C@@H]6[C@@]7(C)CC[C@H](O[C@H]8OC[C@H](O)[C@H](O[C@@H]9O[C@H](CO)[C@@H](O)[C@H](O)[C@H]9O)[C@H]8O)C(C)(C)[C@@H]7CC[C@@]6(C)[C@]4(C)CC5)[C@H](O)[C@@H](O)[C@@H]3O)O[C@@H]2CO)[C@H](O)[C@H](O)[C@H]1O | 3.6 µM
C[C@@H]1O[C@@H](O[C@H]2[C@H](O)[C@@H](O)[C@H](OC[C@H]3O[C@@H](OC(=O)[C@]45CCC(C)(C)C[C@H]4C4=CC[C@@H]6[C@@]7(C)CC[C@H](O[C@H]8OC[C@H](O)[C@H](O)[C@H]8O)C(C)(C)[C@@H]7CC[C@@]6(C)[C@]4(C)CC5)[C@H](O)[C@@H](O)[C@@H]3O)O[C@@H]2CO)[C@H](O)[C@H](O)[C@H]1O | 2.5 µM
